// data source = patent US20260216326A1

System name: T1, human TL1A (Fitzgerald #30R-AT070) (human, UniProt O95150 72-251, limits assumed)
T1 construct: Coated on the ELISA plate at 1 ug/mL; also called TNFSF15
T1 sequence (looked up): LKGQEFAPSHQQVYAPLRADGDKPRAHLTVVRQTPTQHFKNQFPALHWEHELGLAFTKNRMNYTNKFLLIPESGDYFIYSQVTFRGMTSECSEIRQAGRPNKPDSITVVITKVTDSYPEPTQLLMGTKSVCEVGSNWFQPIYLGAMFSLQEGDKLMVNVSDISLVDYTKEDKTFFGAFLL
Procedure summary: ELISA titration, coated human TL1A, culture supernatant
Measure name: Kd (nM)

1. A111 (antibody, human IgG1, V domains shown, human IgG1/kappa (pFuse vectors), culture supernatant) VH: QVQLVQSGAEVKKPGASVKVSCKASGFDIQDTYMHWVRQRPGQGLEWMGRIEPASGHIKYDPKFQGRVTMTRDTSTSTVYMELSSLRSEDTAVYYCARSGGLPDWWGQGTTVTVSS VL: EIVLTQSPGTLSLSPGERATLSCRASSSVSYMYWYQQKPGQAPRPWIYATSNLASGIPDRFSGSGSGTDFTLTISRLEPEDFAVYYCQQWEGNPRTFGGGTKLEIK: 0.068
2. A101 (antibody, human IgG1, V domains shown, human IgG1/kappa (pFuse vectors), culture supernatant) VH: QVQLVQSGAEVKKPGASVKVSCKASGFDIQDTYMHWVKQRPGQGLEWMGRIDPASGHTKYDPKFQVRATITTDTSTSTAYLELSSLRSEDTAVYYCARSGGLPDVWGQGTTVTVSS VL: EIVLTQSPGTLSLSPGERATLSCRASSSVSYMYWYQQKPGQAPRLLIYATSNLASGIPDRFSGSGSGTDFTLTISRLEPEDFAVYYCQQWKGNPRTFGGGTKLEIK: 0.096
3. A65 (antibody, human IgG1, V domains shown, human IgG1/kappa (pFuse vectors), culture supernatant) VH: QVQLVQSGAEVKKPGASVKVSCKASGFDIQDTYMHWVRQAPGQGLEWMGRIEPASGHIKYDPKFQGRATMTRDTSTSTVYMELSSLRSEDTAVYYCARSGGLPDWWGQGTTVTVSS VL: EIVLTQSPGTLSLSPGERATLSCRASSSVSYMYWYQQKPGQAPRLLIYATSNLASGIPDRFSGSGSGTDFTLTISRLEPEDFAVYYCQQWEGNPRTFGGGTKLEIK: 0.097
